- system: T1, B7H3 (CD276) on MC38-CD276+ cells
- T1 construct: whole, on cells; MC38-CD276KO cells served as the negative control; also called MC38-B7H3+
- T1 sequence (Q5ZPR3 1-534, species assumed, looked up): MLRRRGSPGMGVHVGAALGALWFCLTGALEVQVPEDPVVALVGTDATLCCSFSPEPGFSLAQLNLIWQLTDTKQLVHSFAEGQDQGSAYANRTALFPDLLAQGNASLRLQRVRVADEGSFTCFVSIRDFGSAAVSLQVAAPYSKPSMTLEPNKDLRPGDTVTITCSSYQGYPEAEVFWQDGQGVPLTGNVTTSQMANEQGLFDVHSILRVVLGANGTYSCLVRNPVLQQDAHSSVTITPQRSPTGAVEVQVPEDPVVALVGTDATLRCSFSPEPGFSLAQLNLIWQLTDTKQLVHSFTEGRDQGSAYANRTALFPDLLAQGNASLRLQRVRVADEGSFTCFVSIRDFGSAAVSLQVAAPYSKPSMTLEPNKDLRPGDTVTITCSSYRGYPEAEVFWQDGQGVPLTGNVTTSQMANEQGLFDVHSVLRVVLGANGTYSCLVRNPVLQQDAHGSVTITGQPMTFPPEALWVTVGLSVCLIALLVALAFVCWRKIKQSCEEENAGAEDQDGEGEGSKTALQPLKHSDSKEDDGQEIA
- method: flow cytometry on MC38-CD276+ cells, VHH at 10 ug/ml
Listed below: Positive rates values for each entry.
measured-attribute: Positive rates (%)

[
  {
    "binder": "RWG4 (VHH, Camel VHH; tag not described; also called camel antibody RWG4) VHH: QVQLVQSGGGLVQPGGSLRLSCAASGFTFSVYWFYWVRQAPRQGLEWVSTIASNGSTYYSDSVKGRFTISRDNAKNTVYLQMNSLKPEDTAVYYCVSDPDYYSDYERAYKFWAQGTQVTVSS",
    "numeric-value": 85.8
  },
  {
    "binder": "RWC4 (VHH, Camel VHH; tag not described; also called camel antibody RWC4) VHH: EVQLVESGGGSVQAGGSLRLSCVASEDSTSAMCMGWFRQAPGKEREGVACINPTGEVTWYGDSVKGRFTISRDTVKKIVYLQMNSLKPEDTAMYYCAARVTYGGDWSTDTDYEYWGQGTQVTVSS",
    "numeric-value": 98.3
  },
  {
    "binder": "RWG8 (VHH, Camel VHH; tag not described; also called camel antibody RWG8) VHH: DVQLVESGGGLVQPGGSLRLSCAASGFTFSRYWMGWFRQAPGKGVEWVSTINSGGGSTYYADSVKGRFTISRDNAKNTLYLQLNNLKTEDTAMYYCAKEQWRTGSRGQGTQVTVSS",
    "numeric-value": 4.68
  }
]
